Values from patent US9533961B2

system: Cabbage Looper (Trichoplusia ni, TRIPNI) ("CL"); test: Bioassay on Cabbage Looper (CL), 128-well diet tray assay; type: in vivo; conditions: 168 h, read-out: CL % Control (or Mortality) rating
Below: a set of entries, each annotated with reported mortality at 50 µg/cm2.
Measured Quantity: mortality at 50 µg/cm2

| Smiles Str | Measured Quantity | Value Observed |
| --- | --- | --- |
| Cc1ccc(C)c(-c2ccccc2C(=O)NCc2ccc(-c3ncn(-c4ccc(OC(F)(F)F)cc4)n3)cc2)c1 | mortality at 50 µg/cm2 | 50 to 100% |
| O=C(Nc1ccc(-c2ncn(-c3ccc(OC(F)(F)F)cc3)n2)cc1)c1ccccc1Cc1ccccc1 | mortality at 50 µg/cm2 | 50 to 100% |
| O=C(Nc1ccc(-c2ncn(-c3ccc(OC(F)(F)F)cc3)n2)cc1)c1ccc(Oc2ccccc2)cc1 | mortality at 50 µg/cm2 | 50 to 100% |
| O=C(Nc1ccc(-c2ncn(-c3ccc(OC(F)(F)F)cc3)n2)cc1)c1ccc2c(c1)OC(F)(F)O2 | mortality at 50 µg/cm2 | 0% |
| Cc1ccccc1-c1ccccc1C(=O)NCc1ccc(-c2ncn(-c3ccc(OC(F)(F)F)cc3)n2)cc1 | mortality at 50 µg/cm2 | 50 to 100% |
| CCOc1ccccc1Oc1ccccc1C(=O)Nc1ccc(-c2ncn(-c3ccc(OC(F)(F)F)cc3)n2)cc1 | mortality at 50 µg/cm2 | 0% |
| COc1cccc(C(=O)Nc2ccc(-c3ncn(-c4ccc(OC(F)(F)F)cc4)n3)cc2)c1 | mortality at 50 µg/cm2 | 50 to 100% |
| CC(C)COc1cccc(C(=O)Nc2ccc(-c3ncn(-c4ccc(OC(F)(F)F)cc4)n3)cc2)c1 | mortality at 50 µg/cm2 | 50 to 100% |
